System: Leishmania aethiopica
Assay: Antileishmanial activity against promastigote stage of Leishmania aethiopica assessed as parasite growth inhibition after 24 hrs by Alamar blue assay
Format: functional
VALUE KIND: pIC50
Scale explanation: pIC50 corresponds to minus log10 of a concentration expressed in moles per litre.

Some solved cases for reference:
| COMPOUND | VALUE KIND | DATA VALUE |
| --- | --- | --- |
| NNC(=O)CNC(=O)c1ccccc1N | pIC50 | 6.90 |
| O=C(CN1C(=O)c2ccccc2NC1c1ccc2c(c1)OCO2)N/N=C/c1ccc2c(c1)OCO2 (stereo not given) | pIC50 | 4.92 |
| COC(=O)CCCCCNC(=O)c1ccccc1N | pIC50 | 4.67 |
| COC(=O)CNC(=O)c1ccccc1N | pIC50 | 4.54 |
| O=C(N/N=C/c1ccc(Cl)cc1)C(Cc1ccccc1)N1C(=O)c2ccccc2NC1c1ccc(Cl)cc1 (stereo not given) | pIC50 | 4.99 |
| NNC(=O)CCCCCNC(=O)c1ccccc1N | pIC50 | 7.29 |
| O=C(CCNC(=O)c1ccccc1/N=C/c1ccc(Cl)cc1)N/N=C/c1ccc(Cl)cc1 | pIC50 | 5.36 |
| O=C(CCCN1C(=O)c2ccccc2NC1c1ccco1)N/N=C/c1ccco1 (stereo not given) | pIC50 | 4.98 |
| NNC(=O)C(Cc1ccccc1)NC(=O)c1ccccc1N (stereo not given) | pIC50 | 5.54 |
| COC(=O)CCNC(=O)c1ccccc1N | pIC50 | 4.58 |

Note down pIC50 recorded for COC(=O)C(Cc1ccccc1)NC(=O)c1ccccc1N (stereo not given)
4.81

Note down pIC50 recorded for "C[C@@H]1[C@H](O)[C@@H](C)/C=C/C=C/C=C/C=C/C=C/C=C/C=C/[C@H](O[C@@H]2O[C@H](C)[C@@H](O)[C@H](N)[C@@H]2O)C[C@@H]2O[C@](O)(C[C@@H](O)C[C@@H](O)[C@H](O)CC[C@@H](O)C[C@@H](O)CC(=O)O[C@H]1C)C[C@H](O)[C@H]2C(=O)O.C[C@H](CCC(=O)O)[C@H]1CC[C@H]2[C@@H]3CC[C@@H]4C[C@H](O)CC[C@]4(C)[C@H]3C[C@H](O)[C@]12C"
7.46

====

System: Leishmania aethiopica
Assay: Antileishmanial activity against promastigote stage of Leishmania aethiopica assessed as parasite growth inhibition after 24 hrs by Alamar blue assay
Format: functional
VALUE KIND: pIC50
Scale explanation: pIC50 corresponds to minus log10 of a concentration expressed in moles per litre.

Note down pIC50 recorded for O=C(CCN1C(=O)c2ccccc2NC1c1ccccc1)N/N=C/c1ccccc1 (stereo not drawn)
4.90

Note down pIC50 recorded for CC(C(=O)N/N=C/c1ccco1)N1C(=O)c2ccccc2NC1c1ccco1 (stereo not drawn)
4.97

Note down pIC50 recorded for "COC(=O)CCCNC(=O)c1ccccc1N"
4.76
